// read-out pIC50, gathered for Receptor-type tyrosine-protein kinase FLT3 (Homo sapiens) from published studies
pIC50: −log10 of the molar value.

Consider the following illustrative entries.
Item smiles	pIC50
COC[C@H](C)Nc1ncc2c(-c3ccnc(C4COC4)c3)cc([C@H]3CC[C@H](O)CC3)n2n1	6.00 to 7.00
CCN1CCN(c2ccc3[nH]c(-c4cc(-c5ccc(NC(=O)Nc6cccc(C(F)(F)F)c6)cc5)[nH]n4)nc3c2)CC1	> 7.30
COc1ccc(Nc2ccc(Cc3c[nH]c4ncnc(C5CC5)c34)c(F)n2)cn1	> 6.00

Moving on to the next compound.
Value of pIC50 reported for the compound COC[C@H](C)Nc1ncc2c(-c3cnn(C(C)(C)C(=O)N4CC(C)(O)C4)c3)cc([C@H]3CC[C@H](O)CC3)n2n1 is 5.00 to 6.00

---

pIC50: −log10 of the molar value.
// read-out pIC50, gathered for Receptor-type tyrosine-protein kinase FLT3 (Homo sapiens) from published studies

Consider the following illustrative entries.
Item smiles	Subject of test	Result
CNCCNc1nc2ccccc2c2c(=O)c3cc(F)ccc3sc12	Receptor-type tyrosine-protein kinase FLT3 (Homo sapiens)	> 7.29
CN1C[C@@H]2C[C@H]1CN2CCOc1ccc2c(n1)sc1nc(-c3ccc(NC(=O)Nc4cc(C(C)(C)C)on4)cc3)cn12	Receptor-type tyrosine-protein kinase FLT3 (Homo sapiens)	7.96
COC[C@H](C)Nc1ncc2c(-c3cnn([C@@H]4CCOC4)c3)cc([C@H]3CC[C@H](O)CC3)n2n1	Receptor-type tyrosine-protein kinase FLT3 (Homo sapiens)	6.00 to 7.00
C[C@@H](CCO)Nc1ncc2c(OC3CCOCC3)ncc([C@H]3CC[C@H](O)CC3)c2n1	Receptor-type tyrosine-protein kinase FLT3 (Homo sapiens)	5.00 to 6.00
C[C@H](Nc1ncc2c(O[C@H]3C[C@@H](O)C3)ncc([C@H]3CC[C@H](O)CC3)c2n1)C(F)F	Receptor-type tyrosine-protein kinase FLT3 (Homo sapiens)	5.00 to 6.00
CNC(=O)c1cc(-c2cc([C@H]3CC[C@H](O)CC3)n3nc(N[C@@H](C)COC)ncc23)cc(C)n1	Receptor-type tyrosine-protein kinase FLT3 (Homo sapiens)	5.00 to 6.00
COC[C@H](C)Nc1ncc2c(-c3cnn(C[C@H]4CCC(=O)N4)c3)cc([C@H]3CC[C@H](O)CC3)n2n1	Receptor-type tyrosine-protein kinase FLT3 (Homo sapiens)	6.00 to 7.00
COCC(COC)Nc1ncc2c(=O)n(C3CCNCC3)cc([C@H]3CC[C@H](O)CC3)c2n1	Receptor-type tyrosine-protein kinase FLT3 (Homo sapiens)	5.00 to 6.00
COC[C@H](C)Nc1ncc2c(-c3cnn(C4COC4)c3)cc(-c3ccc(OC)cc3)n2n1	Receptor-type tyrosine-protein kinase FLT3 (Homo sapiens)	5.00 to 6.00
COC[C@H](C)Nc1ncc2c(-c3cnn(C(C)(C)CN4CCOCC4)c3)cc([C@H]3CC[C@H](O)CC3)n2n1	Receptor-type tyrosine-protein kinase FLT3 (Homo sapiens)	5.00 to 6.00

Please go through the list and note pIC50 for each molecule.
1. CCc1nc2c(N)ncc(-c3ccc(N4CCC(N5CCCN(C)CC5)CC4)c(OC)c3)c2nc1NC1CCOCC1
2. C[C@@H](CC(F)(F)F)Nc1ncc2c(O[C@H]3C[C@](C)(O)C3)ncc([C@H]3CC[C@H](O)CC3)c2n1
3. COC(=O)CCc1c(C)[nH]c(/C=C2\C(=O)Nc3cc(NC(=O)c4cccn(-c5ccc(F)cc5)c4=O)ccc32)c1C
4. Cc1[nH]c(/C=C2\C(=O)Nc3cc(NC(=O)NC(=O)c4ccccc4)ccc32)c(C)c1C(=O)O
5. [O-][n+]1ccc(-c2n[nH]c3c2Cc2sccc2-3)cc1

Found:
["7.00 to 8.00", "6.00 to 7.00", 7.34, 6.04, "6.30 to 7.00"]

---

// read-out IC50, gathered for Receptor-type tyrosine-protein kinase FLT3 (Homo sapiens, UniProt P36888) from published studies

Item smiles	Subject of test	IC50
CCc1nc2c(N)ncc(-c3cnn(C4COC4)c3)c2nc1N[C@H]1CCOC1	Receptor-type tyrosine-protein kinase FLT3 (Homo sapiens, UniProt P36888)	≤ 10 nM
COC[C@H](C)Nc1ncc2c(-c3cnn(C(C)(C)C(=O)N4CCOCC4)c3)cc([C@H]3CC[C@@](C)(O)CC3)n2n1	Receptor-type tyrosine-protein kinase FLT3 (Homo sapiens, UniProt P36888)	100 to 1000 nM
CNc1cc(Oc2ccc(NC(=O)Nc3cc(CN4CCC4)cc(C(F)(F)F)c3)cc2)ncn1	Receptor-type tyrosine-protein kinase FLT3 (Homo sapiens, UniProt P36888)	1200 nM

Moving on to the next compound.
Value of IC50 reported for the compound Cc1cc(-c2cc([C@H]3CC[C@H](O)CC3)n3nc(N[C@@H](C)C(F)F)ncc23)ccn1 is 100 to 1000 nM

---

// read-out IC50, gathered for Receptor-type tyrosine-protein kinase FLT3 (Homo sapiens) from published studies

Consider the following illustrative entries.
Item smiles	Subject of test	IC50
CCc1nc2c(N)ncc(-c3cnn(C4CCN(C5CC5)CC4)c3)c2nc1N[C@@H]1CC[C@H](O)C1	Receptor-type tyrosine-protein kinase FLT3 (Homo sapiens)	≤ 10 nM
[O-][n+]1cccc(-c2n[nH]c3c2Cc2sccc2-3)c1	Receptor-type tyrosine-protein kinase FLT3 (Homo sapiens)	> 1000 nM

Please go through the list and note IC50 for each molecule.
1. Cc1nc(Nc2ncc3ccc4ncc(C5CCCC5)n4c3n2)ccc1N1CCNCC1.Cl
2. C[C@@H](CC(F)(F)F)Nc1ncc2c(-c3cnn(C4COC4)c3)cc([C@H]3CC[C@H](O)CC3)n2n1
3. CC(C)N1CCNc2ccn3ncc(c3n2)-c2cccc(c2)OCC1
4. COC[C@H](C)Nc1ncc2c(-c3ccnc(N4CCN(C(=O)OC5COC5)CC4)c3)cc([C@H]3CC[C@H](O)CC3)n2n1

Found:
< 5 nM
≤ 100 nM
< 100 nM
100 to 1000 nM

Please go through the list and note IC50 for each molecule.
1. CCc1nc2c(N)ncc(-c3cnn(C4CCN(C(=O)OC(C)(C)C)CC4)c3)c2nc1N[C@@H]1CC[C@H](O)C1
2. CCc1nc2c(N)ncc(-c3cnn(C)c3)c2nc1N[C@@H]1CC[C@H](O)C1
3. COC[C@H](C)Nc1ncc2c(-c3ccnc(N4CCC5(COC5)C4)c3)cc([C@H]3CC[C@H](O)CC3)n2n1
4. Oc1ccc(/C=C/c2cc(-c3nc4ccccc4[nH]3)n[nH]2)cc1
5. COc1ccc(-c2n[nH]c3c2Cc2sc(-c4ccc(F)cc4)cc2-3)cc1
6. CCc1nc2c(N)ncc(-c3ccc(N4CCC(N5CCN(C)CC5)CC4)c(OC(F)(F)F)c3)c2nc1NC1CCOCC1
7. C[C@@H](CC(F)(F)F)Nc1ncc2c(O[C@H]3C[C@H](CN4CCOCC4)C3)ncc([C@H]3CC[C@H](O)CC3)c2n1

Found:
1. ≤ 10 nM
2. ≤ 10 nM
3. 100 to 1000 nM
4. < 50 nM
5. < 100 nM
6. ≤ 10 nM
7. 100 to 1000 nM

Please go through the list and note IC50 for each molecule.
1. c1cc2c(s1)Cc1c(-c3ccc(N4CCOCC4)cc3)n[nH]c1-2
2. COC[C@H](C)Nc1ncc2c(O[C@H]3C[C@@H](O)C3)ncc(-c3ccnnc3)c2n1
3. COC[C@H](C)Nc1ncc2c(-c3cnn(C4COC4)c3)cc([C@H]3CC[C@](O)(C(C)C)CC3)n2n1

Found:
< 100 nM
1000 to 10000 nM
100 to 1000 nM

---

// read-out IC50, gathered for Receptor-type tyrosine-protein kinase FLT3 (Homo sapiens) from published studies

Consider the following illustrative entries.
Molecule	IC50
COC[C@H](C)Nc1ncc2c(-c3cnn(C(C)(C)C(=O)N4CCC(C)(O)C4)c3)cc([C@H]3CC[C@H](O)CC3)n2n1 (stereo partly shown)	1000 to 10000 nM
COC[C@H](C)Nc1ncc2c(-c3cnn(C(C)(C)C(=O)N4CCC5(COC5)C4)c3)cc([C@H]3CC[C@H](O)CC3)n2n1	1000 to 10000 nM
CC[C@H](C)Nc1ncc2c(NC3CCN(C)CC3)ncc([C@H]3CC[C@H](O)CC3)c2n1	100 to 1000 nM

Please go through the list and note IC50 for each molecule.
1. CNC(=O)c1ncc(-c2cc([C@H]3CC[C@H](O)CC3)n3nc(N[C@@H](C)CC(F)(F)F)ncc23)cn1
2. Brc1ccc(Nc2n[nH]c3c2Cc2sccc2-3)cc1

Found:
["≤ 100 nM", "100 to 499 nM"]

Please go through the list and note IC50 for each molecule.
1. CCc1nc2c(N)ncc(-c3ccc(N4CCC(N5CCNCC5)CC4)c(OC)c3)c2nc1NC1CCOCC1
2. O=C1c2cccc(c2)-c2cnn3ccc(nc23)NCCNCCN1CCO

Found:
["≤ 10 nM", "100 to 1000 nM"]
